test system: MOLT-4 leukemia; assay: NCI tumour cell line growth inhibition, 48 h
test-readout: TGI (µM)

1) CC(=O)OCC1OC(OC2=C(CC=C(Cl)Cl)C(=O)c3ccccc3C2=O)C(OC(C)=O)C(OC(C)=O)C1OC(C)=O (centres undefined) | 9.89
2) COc1ccc(-c2nn(-c3cccc(NC(=O)Nc4cc(C(F)(F)F)cc(C(F)(F)F)c4)c3)cc2-c2ccncc2)cc1Cl | 4
3) CN(C)CCCNc1nnc(NCCCN(C)C)c2c(=O)c3sccc3[nH]c12 | 14.4
4) O=C1c2ccccc2C(=O)N1CCCCCCNOCCCN1C(=O)c2ccccc2C1=O | 38.7
5) COc1ccc(N2C(=O)/C(=C\c3cccc(Oc4ccccc4)c3)S(=O)(=O)C2c2ccccc2)cc1 (centres undefined) | 22.5
6) O=c1[nH]c(SCc2c(Cl)c(Cl)c(Cl)c(Cl)c2Cl)nc(=S)[nH]1 | 21.3
7) CCN(CC)CCNC(=O)c1cccc2cc3ccccc3nc12 | 7.95
8) CC(C)C(=O)/C=C/c1ccc(Cl)cc1 | 55.9
9) CC(C)=CC(=O)OC1C2C(C)C(=O)OC2C(O)C(C)C2C=CC(=O)C21C (centres undefined) | 9.71
10) Oc1c(-c2ccccc2)sc2ccccc12 | 88.6
11) CN1CCN(Cc2ccc(NC(=O)c3ccc(C#N)c(C#Cc4cnc(N)c5ncccc45)c3)cc2C(F)(F)F)CC1 | 8.04
12) CC[O-].Cc1ccc2cccc([O-])c2n1.Cc1ccc2cccc([O-])c2n1.Cc1ccc2cccc([O-])c2n1.[Ti+4] | 35.8
13) CCOc1ccc(N=Nc2ccc3oc(=O)c(C(=O)Nc4ccc(OC)cc4)cc3c2)cc1 | 44.4
14) CC[C@@H](C(=O)[C@@H](C)[C@@H](O)[C@H](C)[C@@H]1O[C@@H]([C@@H](CC)C(=O)O)CC[C@@H]1C)[C@H]1OC2(C=C[C@@H](O)[C@]3(CC[C@@](C)([C@H]4CC[C@](O)(CC)[C@H](C)O4)O3)O2)[C@H](C)C[C@@H]1C (some centres undefined) | 2.5
15) COc1ccc(/C=C/c2cc(N3CCOCC3)c3cc(F)c(F)cc3n2)cc1OC | 11
16) CCOc1ccc(/C=C/[N+](=O)[O-])cc1 | 42.9

---

system: NCI-H226 lung; assay: NCI tumour cell line growth inhibition, 48 h
Where a SMILES comes first, the peptide text is derived from it. [ ]: non-standard residue; d: D form. The star is where a group is joined. ξ: configuration not given here. NMeF = CN[C@@H](Cc1ccccc1)C(=O)O; ξNMeV = CNC(C(=O)O)C(C)C; Boc = CC(C)(C)OC(=O)*; OBn = c1ccc(CO*)cc1
Recorded TGI by entry
test-readout: TGI

1. C[C@@H](NC(=O)OC1C=CC2(CC1)C(=O)N(C)c1ccccc12)c1cccc2ccccc12 (stereo partly drawn) | > 25 µM
2. CC1(C)CC2C=C(C=O)C3(C=O)CC3(C)C2C1 (stereo not drawn) | 9.18 µM
3. Cc1nc(/N=C(\N)NC(=O)Nc2ccccc2Cl)sc1C | 14.9 µM
4. N#CC(C#N)=C(N)/C(C#N)=C/c1cc(O)c(O)c(Br)c1 | > 79.1 µM
5. C#CCNC(=O)CC[C@]1(C)[C@H]2CC[C@@H]3[C@@H]([C@@](C)(O)CCC=C(C)C)CC[C@@]3(C)[C@]2(C)CC[C@H]1C(=C)C | 43.1 µM
6. Cc1cccc2c(N)c3cccc(C(=O)NCCN(C)C)c3nc12 | 1.48 µM
7. C#COc1cccc(Nc2ncnc3ncc(NC(=O)CCl)cc23)c1 | > 62.5 µM
8. COc1cc2cc[n+]3c4cc(OC)c(OC)cc4c(C)cc3c2cc1OC | > 100 µM
9. O=C(O)CCCCn1cnc2c(=S)nc[nH]c21 | > 100 µM
10. CC12CC[C@H](O)C(C)(C)[C@H]1CC[C@](C)(O)C2COc1ccc2ccc(=O)oc2c1 (stereo partly drawn) | > 100 µM
11. C[C@H]1CC[C@@H]2[C@@H](C)[C@H]3[C@H](C[C@H]4[C@@H]5CC=C6C[C@@H](O)CC[C@]6(C)[C@H]5C[C@H](O)[C@]34C)N2C1 | > 100 µM
12. CC(C)C(C(=O)N1CCC[C@@H]1C(=O)OCc1ccccc1)N(C)C(=O)C(C(C)C)N(C)C(=O)[C@H](Cc1ccccc1)N(C)C(=O)[C@H](NC(=O)OC(C)(C)C)C(C)C (stereo partly drawn) (Boc-[dV][NMeF][ξNMeV][ξNMeV][dP]-OBn) | > 100 µM
13. C=C(C)[C@@H]1CCC2=C[C@@H](OC2=O)[C@@H](C(=C)C)C(=O)/C=C(/C)C(=O)C1 | > 100 µM
14. CCCC(=O)OC[n+]1cccc(-c2c(COC(=O)NC(C)C)c(COC(=O)NC(C)C)c3n2CCC3)c1 | > 100 µM
15. Cc1c(C(=O)O)c2cc3ccccc3cc2c(=O)n1C | > 10 µM
16. COc1ccc(N2C(=O)/C(=C\c3cccc(Oc4ccccc4)c3)S(=O)(=O)C2c2ccccc2)cc1 (stereo not drawn) | > 100 µM
17. CC1=C(c2cc(C(=O)Nc3ccc(Cl)c(Cl)c3)nc(N)n2)Sc2ccccc2N1 | > 100 µM
18. CC(=O)OCC1OC(OC2=C(CC=C(Cl)Cl)C(=O)c3ccccc3C2=O)C(OC(C)=O)C(OC(C)=O)C1OC(C)=O (stereo not drawn) | 50.5 µM
19. O=C1c2ccccc2C(=O)N1CCCCCCNOCCCN1C(=O)c2ccccc2C1=O | > 100 µM
20. O=C1/C(=C\c2coc3ccccc3c2=O)c2ccccc2N1c1c(Cl)cccc1Cl | > 100 µM
21. CCOc1ccc(/C=C/[N+](=O)[O-])cc1 | 11.7 µM
22. CCN(CC)Cc1nc(C2CCC([N+](=O)[O-])O2)no1 (stereo not drawn) | > 100 µM
23. CCOC(=O)c1cc2c([nH]1)C(=O)CC1=C2CCN1Cc1ccccc1 | 32.3 µM
24. CSc1nc2c(N)ncnc2n1C | > 100 µM
25. COc1ccccc1S(=O)Nc1ccccc1 (stereo not drawn) | > 100 µM
26. CNc1ccc(-c2cc(=O)oc3ccc(Cl)cc23)cc1 | > 100 µM
27. O=C(OCC12CC3CC(CC(C3)C1)C2)c1ccc(NCc2cc(O)ccc2O)cc1 | 6.71 µM
28. Clc1ccc(OC2CCO2)cc1Cl (stereo not drawn) | > 100 µM
29. NCC(NC(=O)OCc1ccccc1)C(=O)O (stereo not drawn) | > 50 µM
30. COc1ccc(-c2nn(-c3cccc(NC(=O)Nc4cc(C(F)(F)F)cc(C(F)(F)F)c4)c3)cc2-c2ccncc2)cc1Cl | 6.35 µM
31. COC(=O)C1CCC(Nc2cccc(C(F)(F)F)c2)=N1 (stereo not drawn) | > 100 µM
32. CCOC(=O)C1=C(C)NC(=O)NC1c1coc2cc(C)cc(C)c2c1=O (stereo not drawn) | > 100 µM
33. CCOC(=O)C(=O)N=Nc1nc2c(O)c3ccccc3c(O)c2s1 | 30.2 µM
34. CCCCNC(=O)Nc1c(C(N)=O)c2n(c1C(=O)OCC)CCCCC2 | > 100 µM
35. O=C1c2nn(-c3ccccc3)nc2C(c2ccccc2)N1c1ccccc1 (stereo not drawn) | > 100 µM
36. CCCCN(CCCC)CCCN=c1nc2c(c(N)n1-c1ccccc1)c(=S)n(-c1ccccc1)c(=S)n2-c1ccccc1 | 3.11 µM
37. Cn1cc(C[C@@H](N)C(=O)O)c2ccccc21 | > 100 µM
38. O=C1C(Cl)=C(Nc2cccc(O)c2)C(=O)N1c1ccc(Cl)c(Cl)c1 | 46.6 µM
39. CC(=O)OC1CCC2(C)C(=CCC3C2CCC2(C)C(C(C)C(=O)O)CCC32)C1 (stereo not drawn) | > 100 µM
40. O=C1CN2C(Cl)(Cl)C2(c2ccccc2)c2cc(Cl)ccc2N1CC(F)(F)F (stereo not drawn) | 67 µM
41. Cc1ccc(-n2c(Cn3nnc(-c4cccnc4)n3)nn(C3OC(COC(=O)c4ccccc4)C(OC(=O)c4ccccc4)C3OC(=O)c3ccccc3)c2=S)cc1 (stereo not drawn) | > 100 µM
42. Nc1nc(NNc2ccc(Cl)c(Cl)c2)cc(=O)[nH]1 | > 100 µM
43. CCOc1ccc2c(ccc(/C=C\c3cc(C)c4cccnc4c3O)[n+]2C)c1 | 3.77 µM
